Parameter: 180 nM hFGFR1c-V5-6His Bind (RU). Scope: all listed entries.
Biological target: T1, extracellular domain of human FGFR1c expressed with C-terminal V5 and hexahistidine tags (human, UniProt P11362 22-376)
T1 construct: also called hFGFR1c-V5-6His
T1 sequence: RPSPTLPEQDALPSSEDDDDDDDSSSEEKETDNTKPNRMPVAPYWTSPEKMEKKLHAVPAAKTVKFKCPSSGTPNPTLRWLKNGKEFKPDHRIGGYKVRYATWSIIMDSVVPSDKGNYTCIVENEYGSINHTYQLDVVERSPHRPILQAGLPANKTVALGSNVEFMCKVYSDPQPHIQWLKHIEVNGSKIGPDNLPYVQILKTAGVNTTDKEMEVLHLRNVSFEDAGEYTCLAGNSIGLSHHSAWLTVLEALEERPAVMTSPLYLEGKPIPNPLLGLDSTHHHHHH
Assay: SPR, mAb captured, 37 C
Method: Equilibrium dissociation constants (KD values) for human KLB or human FGFR1c binding to purified anti-KLB/FGFR1c monoclonal antibodies were determined using a real-time surface plasmon resonance biosensor using a Biacore T-200 or 4000 instrument. […] Association of hKLB-HA-6His or hFGFR1c-V5-6His to the captured monoclonal antibody was monitored for 3.5 to 4 minutes and the dissociation of hKLB-HA-6His or hFGFR1c-V5-6His in HBST running buffer was monitored for 8-12 minutes. […]
State just the number; it will be interpreted in RU.

binder | numeric result
H1H8900P (antibody, V domains shown, H1H Fc prefix (human Fc)) VH: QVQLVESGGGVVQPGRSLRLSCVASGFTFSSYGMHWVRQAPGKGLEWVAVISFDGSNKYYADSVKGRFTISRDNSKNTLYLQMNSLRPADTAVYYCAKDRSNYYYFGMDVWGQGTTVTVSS VL: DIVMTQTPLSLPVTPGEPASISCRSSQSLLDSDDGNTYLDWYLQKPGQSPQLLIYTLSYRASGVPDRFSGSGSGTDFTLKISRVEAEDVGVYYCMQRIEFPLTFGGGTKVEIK | 1.6
H4H8859P (antibody, V domains shown, human IgG4 Fc (H4H prefix)) VH: EVQLVESGGSVVRPGGSLRLSCAASGFTFDVYGMSWVRQAPGKGLEWVSGINWIGGSTGYADSVKGRFTISRDNAKNSLYLQMNSLRAEDTALYYCTREEDYWGQGTLVTVSS VL: DVVMTQSPLSLAVTLGQPASISCRSSQSLVYSDGNTYLNWFQQRPGQSPRRLFYKVSNRDSGVPDRFSGSGSGTDFTLKISRVEAEDVGIYYCMQGIKWPLTFGGGTKVEIK | 6.8
H2bM8096N (antibody, V domains shown, mouse IgG2 Fc (H2bM prefix)) VH: QVQLVESGGGVVQPGRSLRLSCAASGFTFSSYGLHWVRQAPGKGLEWVAVIWHDGSHKYYADSVKGRFTISRDNSKNTVYLQMNSLRAEDTAVYYCARDGIPVAEDYYLYGMDVWGQGTTVTVSS VL: EIVLTQSPGTLSLSPGERATLSCRASQSVDSSYLAWYHQKPGQAPRLLIYGASSRATGIPDRFSGSGSGTDFTLTISRLEPEDFAVYYCQQYGSSRTFGQGTKVEIK | -1.2
H2aM8832N (antibody, V domains shown, mouse IgG2 Fc (H2aM prefix)) VH: QVQLVESGGGVVQPGRSLRLSCAASGFTFSRYGMHWVRQAPGKGLEWVAVIWYDGTNKYYEDSLKGRFTISRDNSKNTLYLQMNSLRAEDSAVYYCARDQGKYIDYWGQGTLVTVSS VL: AIQMTQSPSSLSASVGDRVTITCRTSQDIRNDLGWYQQKPGKVPNLLIYAASTLQSGVPSRFSGSGSGTDFTLTISSLQPEDFATYYCLQDYNYPFTFGPGTKVDIK | 2.3

Recorded result, H4H8852P (antibody, V domains shown, human IgG4 Fc (H4H prefix)) VH: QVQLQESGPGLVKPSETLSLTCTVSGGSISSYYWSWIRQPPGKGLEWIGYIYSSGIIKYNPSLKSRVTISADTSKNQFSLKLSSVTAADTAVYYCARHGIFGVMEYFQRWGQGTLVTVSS VL: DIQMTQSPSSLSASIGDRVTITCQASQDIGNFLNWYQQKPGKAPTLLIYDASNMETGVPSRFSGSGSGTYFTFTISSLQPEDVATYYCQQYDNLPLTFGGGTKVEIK , 180 nM hFGFR1c-V5-6His Bind (RU): 1
